tested on: MRSA NCTC 11939; test: Synergy testing: disc susceptibility, zone of inhibition on agar containing Laureth derivative; assay type: cell-based, Staphylococcus aureus; details: antibiotic disc in the presence of L1 [C12E1] 0.005 mmol/L
Response field class: enum, chosen by comparing Zone of Inhibition against low = under 20 mm, intermediate = from 20 mm up to 30 mm, high = 30 mm and over

[
  {
    "Compound": "CCC[C@@H]1C[C@@H](C(=O)N[C@@H]([C@H]2O[C@H](SC)[C@H](O)[C@@H](O)[C@H]2O)[C@H](C)Cl)N(C)C1 [Clindamycin]",
    "Target under test": "MRSA NCTC 11939",
    "Label class": "high"
  },
  {
    "Compound": "COc1cc(Cc2cnc(N)nc2N)cc(OC)c1OC [Trimethoprim]",
    "Target under test": "MRSA NCTC 11939",
    "Label class": "intermediate"
  },
  {
    "Compound": "CC[C@H]1OC(=O)[C@H](C)[C@@H](O[C@H]2C[C@@](C)(OC)[C@@H](O)[C@H](C)O2)[C@H](C)[C@@H](O[C@@H]2O[C@H](C)C[C@H](N(C)C)[C@H]2O)[C@](C)(O)C[C@@H](C)C(=O)[C@H](C)[C@@H](O)[C@]1(C)O [Erythromycin]",
    "Target under test": "MRSA NCTC 11939",
    "Label class": "low"
  },
  {
    "Compound": "CO[C@H]1/C=C/O[C@@]2(C)Oc3c(C)c(O)c4c(O)c(c(/C=N/N5CCN(C)CC5)c(O)c4c3C2=O)NC(=O)/C(C)=C\\C=C\\[C@H](C)[C@H](O)[C@@H](C)[C@@H](O)[C@@H](C)[C@H](OC(C)=O)[C@@H]1C [Rifampicin]",
    "Target under test": "MRSA NCTC 11939",
    "Label class": "high"
  },
  {
    "Compound": "CC(=O)O[C@H]1C[C@@]2(C)[C@@H](C[C@@H](O)[C@H]3[C@@]4(C)CC[C@@H](O)[C@@H](C)[C@@H]4CC[C@@]32C)/C1=C(\\CCC=C(C)C)C(=O)O [Fusidic Acid]",
    "Target under test": "MRSA NCTC 11939",
    "Label class": "high"
  },
  {
    "Compound": "COc1c(N2C[C@@H]3CCCN[C@@H]3C2)c(F)cc2c(=O)c(C(=O)O)cn(C3CC3)c12 [Moxyfloxacin]",
    "Target under test": "MRSA NCTC 11939",
    "Label class": "low"
  },
  {
    "Compound": "CN(C)[C@@H]1C(O)=C(C(N)=O)C(=O)[C@@]2(O)C(O)=C3C(=O)c4c(O)cccc4[C@@](C)(O)[C@H]3C[C@@H]12 [Tetracycline]",
    "Target under test": "MRSA NCTC 11939",
    "Label class": "high"
  },
  {
    "Compound": "CN[C@H](CC(C)C)C(=O)N[C@H]1C(=O)N[C@@H](CC(N)=O)C(=O)N[C@H]2C(=O)N[C@H]3C(=O)N[C@H](C(=O)N[C@H](C(=O)O)c4cc(O)cc(O)c4-c4cc3ccc4O)[C@H](O)c3ccc(c(Cl)c3)Oc3cc2cc(c3O[C@@H]2O[C@H](CO)[C@@H](O)[C@H](O)[C@H]2O[C@H]2C[C@](C)(N)[C@H](O)[C@H](C)O2)Oc2ccc(cc2Cl)[C@H]1O [Vancomycin]",
    "Target under test": "MRSA NCTC 11939",
    "Label class": "intermediate"
  },
  {
    "Compound": "C/C(=C\\C(=O)OCCCCCCCCC(=O)O)C[C@@H]1OC[C@H](C[C@@H]2O[C@H]2[C@@H](C)[C@H](C)O)[C@@H](O)[C@H]1O [Muprocin]",
    "Target under test": "MRSA NCTC 11939",
    "Label class": "high"
  },
  {
    "Compound": "O=C(N[C@H](CO)[C@H](O)c1ccc([N+](=O)[O-])cc1)C(Cl)Cl [Chloramphenicol]",
    "Target under test": "MRSA NCTC 11939",
    "Label class": "intermediate"
  }
]

* * *

system: MRSA EMRSA 15 19972/98; test: MIC agar dilution, MRSA strain 39; type: cell-based; conditions: Staphylococcus aureus, 48 hrs
Property label: MIC (µM)

[
  {
    "Smiles representation": "CCCCCCCCCCCCOCCOCCOCCO",
    "Limit operator": "=",
    "Number": 110
  },
  {
    "Smiles representation": "CCCCCCCCCCCCOCCO",
    "Limit operator": "=",
    "Number": 220
  },
  {
    "Smiles representation": "CCCCCCCCCCCCOCCOCCOCCOCCOCCO",
    "Limit operator": "=",
    "Number": 110
  },
  {
    "Smiles representation": "CCCCCCCCCCCCOCCOCCOCCOCCO",
    "Limit operator": "=",
    "Number": 55
  },
  {
    "Smiles representation": "CCCCCCCCCCCCOCCOCCOCCOCCOCCOCCO",
    "Limit operator": "=",
    "Number": 110
  },
  {
    "Smiles representation": "CCCCCCCCCCCCOCCOCCO",
    "Limit operator": "=",
    "Number": 110
  },
  {
    "Smiles representation": "CCCCCCCCCCCCOCCOCCOCCOCCOCCOCCOCCO",
    "Limit operator": ">",
    "Number": 440
  },
  {
    "Smiles representation": "CCCCCCCCCCCCOCCOCCOCCOCCOCCOCCOCCOCCO",
    "Limit operator": ">",
    "Number": 440
  }
]

* * *

System: MRSA GER 131/98 (Sger Iidc)
Test: MIC agar dilution, MRSA strain 35
Assay type: cell-based
Conditions: Staphylococcus aureus, 22 hrs
Protocol: Molar equivalent concentrations were used to allow comparison between compounds of differing molecular mass. Due to weighing difficulties, any compound in solid form was melted in a water bath prior to dilution. […] Each plate was examined for bacterial growth after 22 and 48 hours, with each being incubated in between examinations. A positive result was recorded as growth of ≧10 colonies. […] The lowest concentration of chemical that inhibited growth was recorded as the MIC. […]

[
  {
    "Smiles representation": "CCCCCCCCCCCCOCCOCCOCCOCCOCCOCCOCCOCCO",
    "MIC": "440 µM"
  },
  {
    "Smiles representation": "CCCCCCCCCCCCOCCOCCOCCOCCOCCOCCO",
    "MIC": "110 µM"
  },
  {
    "Smiles representation": "CCCCCCCCCCCCOCCO",
    "MIC": "220 µM"
  },
  {
    "Smiles representation": "CCCCCCCCCCCCOCCOCCO",
    "MIC": "220 µM"
  }
]

* * *

Test system: MRSA EMRSA 15 1729/98
Assay: MIC agar dilution, MRSA strain 42
Assay type: cell-based
Settings: Staphylococcus aureus, 22 hrs
Method: Molar equivalent concentrations were used to allow comparison between compounds of differing molecular mass. Due to weighing difficulties, any compound in solid form was melted in a water bath prior to dilution. […] Each plate was examined for bacterial growth after 22 and 48 hours, with each being incubated in between examinations. A positive result was recorded as growth of ≧10 colonies. […] The lowest concentration of chemical that inhibited growth was recorded as the MIC. […]
MIC by entry:

[
  {
    "Smiles representation": "CCCCCCCCCCCCOCCOCCO",
    "MIC": "110 µM"
  },
  {
    "Smiles representation": "CCCCCCCCCCCCOCCOCCOCCOCCOCCOCCOCCOCCO",
    "MIC": "> 440 µM"
  },
  {
    "Smiles representation": "CCCCCCCCCCCCOCCO",
    "MIC": "220 µM"
  },
  {
    "Smiles representation": "CCCCCCCCCCCCOCCOCCOCCOCCOCCO",
    "MIC": "110 µM"
  }
]

* * *

MIC by entry:
system: Enterococcus faecium (VRE) MB 305; experiment: MIC agar dilution, VRE strain 25; format: cell-based; details: 22 hrs
Property label: MIC (µM)

[
  {
    "Molecule": "CCCCCCCCCCCCOCCOCCOCCOCCO [L4, Tetraethylene Glycol Monododecyl Ether]",
    "Units symbol": "µM",
    "Number": 110
  },
  {
    "Molecule": "CCCCCCCCCCCCOCCOCCOCCOCCOCCOCCOCCO [L7, Heptaethylene Glycol Monododecyl Ether]",
    "Units symbol": "µM",
    "Number": 220
  },
  {
    "Molecule": "CCCCCCCCCCCCOCCOCCOCCOCCOCCO [L5, Pentaethylene Glycol Monododecyl Ether]",
    "Units symbol": "µM",
    "Number": 110
  },
  {
    "Molecule": "CCCCCCCCCCCCOCCO [L1, Ethylene Glycol Monododecyl Ether]",
    "Units symbol": "µM",
    "Number": 440
  }
]
